Biological target: Aspartate--tRNA(Asp/Asn) ligase (Mycobacterium tuberculosis (strain ATCC 25618 / H37Rv)) (UniProt P9WFW3); further: in the data most compounds retested in dose-response had high values
Sequence (whole entry): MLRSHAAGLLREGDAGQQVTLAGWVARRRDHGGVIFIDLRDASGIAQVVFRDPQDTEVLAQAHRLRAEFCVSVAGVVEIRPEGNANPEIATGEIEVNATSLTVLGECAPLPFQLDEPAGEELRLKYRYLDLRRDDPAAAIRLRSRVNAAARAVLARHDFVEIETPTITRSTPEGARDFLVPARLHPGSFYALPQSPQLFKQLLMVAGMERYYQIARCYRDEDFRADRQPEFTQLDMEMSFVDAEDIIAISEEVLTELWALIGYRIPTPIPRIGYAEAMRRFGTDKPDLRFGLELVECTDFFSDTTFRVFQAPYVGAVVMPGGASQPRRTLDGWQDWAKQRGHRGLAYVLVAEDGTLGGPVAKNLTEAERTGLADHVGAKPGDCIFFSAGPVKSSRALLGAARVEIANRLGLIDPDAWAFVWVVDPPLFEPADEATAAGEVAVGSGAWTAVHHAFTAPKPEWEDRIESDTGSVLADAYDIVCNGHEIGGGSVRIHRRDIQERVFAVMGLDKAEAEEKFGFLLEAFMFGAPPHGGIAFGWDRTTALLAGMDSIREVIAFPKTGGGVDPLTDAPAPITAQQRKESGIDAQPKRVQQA
Test: Assay for Asp RNA synthetase-1 from Mycobacterium tuberculosis
Assay type: functional
Parameters: scale not given: direction of the effect not stated beside the values
Conditions: 30 µM
What Percent Effect was measured for each of the following?
Write the number in % without appending the unit.

Data request: Note down Percent Effect recorded for c1ccc(C(OCCNC2CCc3ncnn3C2)c2ccccc2)cc1 (centres undefined)
Data returned: 2.94

Data request: Note down Percent Effect recorded for "Cc1nc(C)c(C(=O)N2CCC(Nc3cccnc3)CC2)s1"
Data returned: 16.8

Data request: Note down Percent Effect recorded for Cc1n[nH]cc1C(=O)N1CCCC(n2nnc3cc(F)ccc32)C1 (centres undefined)
Data returned: -7.43

Data request: Note down Percent Effect recorded for CC(O)CN1CCN(C(=O)c2cn(-c3ccccc3Cl)nn2)CC1 (centres undefined)
Data returned: 3.29

* * *

Target: Shiga toxin 2 (Escherichia coli O157:H7) (UniProt P09385+P09386)
Test: E. coli 0.157:H7 Shiga Toxin SOP - stx2 screening assay
Type: functional
Parameters: scale not given: direction of the effect not stated beside the values
Details: 30 µM
MEASURED_METRIC: Percent Effect (%)
Write the number in % without appending the unit.

Data request: Note down Percent Effect recorded for "O=C1NCCN1C1CCN(Cc2ccccn2)CC1"
Data returned: -6.38

Data request: Note down Percent Effect recorded for "O=C(c1ccco1)N1C[C@H]2CCCN(Cc3cccs3)[C@H]2C1"
Data returned: -1.93

Data request: Note down Percent Effect recorded for O=C(c1ccc(N2CCCC2)nn1)N1CCCC(n2cccn2)C1 (stereo not drawn)
Data returned: 23.7

Data request: Note down Percent Effect recorded for "Cc1ccc(-c2nnc(SCC(=O)O)n2-c2ccc(C)cc2)cc1"
Data returned: -4.96

Data request: Note down Percent Effect recorded for "CCc1nc2ccccc2c(=O)n1CC1(O)CCN(S(C)(=O)=O)CC1"
Data returned: -2.21

Data request: Note down Percent Effect recorded for "O=C(c1ccccn1)N1CCn2cnc(COCC3CC3)c2C1"
Data returned: -5.26

Data request: Note down Percent Effect recorded for "O=C(Nc1cccc(CNCc2cccs2)c1)C1CCCC1"
Data returned: 13

Data request: Note down Percent Effect recorded for "O=C(NCCC(=O)N1CCCCCC1)c1c(O)cc(F)cc1F"
Data returned: -11.1
